Each entry below lists one item and its recorded inhibition value.
protocolNotes: blockers of Trypanosoma cruzi growth in host cells – cell-based, NIH3T3 host, beta-gal parasite, luminescence, cherry-pick, confirmation (AID 651739)
protocolConditions: T. cruzi beta-gal in NIH3T3, GalScreen luminescence, 90 h; at 8.35 µM; hits give high values
Out of some 5,600 compounds screened, about 4,100 (73%) were called active. Roughly 4% stayed inconclusive and do not appear here. The set was probably picked from earlier hits. Not all results are given here.

# compoundStructure, unitOfMeasure, inhibition
measured = [
    ("C[C@H]1CN([C@@H](C)CO)S(=O)(=O)c2ccc(C#CC3CCCC3)cc2O[C@H]1CN(C)C(=O)Cc1ccncc1", "%", 110),
    ("C[C@H](CO)N1C[C@H](C)[C@H](CN(C)S(=O)(=O)c2cccc(F)c2)Oc2ncc(/C=C/c3ccccc3)cc2C1=O", "%", 102),
    ("Cc1noc(C)c1S(=O)(=O)Nc1ccc2c(c1)C(=O)N([C@@H](C)CO)C[C@H](C)[C@@H](CN(C)C(=O)Nc1cccc3ccccc13)OCCCC[C@H](C)O2", "%", 99.4),
    ("Cc1ccc(-c2cnc3c(c2)C(=O)N([C@@H](C)CO)C[C@@H](C)[C@H](CN(C)Cc2ccccc2F)O3)cc1", "%", 102),
]

* * *

protocolNotes: blockers of Trypanosoma cruzi growth in host cells – cell-based, NIH3T3 host, beta-gal parasite, luminescence, cherry-pick, confirmation (AID 651739)
protocolConditions: T. cruzi beta-gal in NIH3T3, GalScreen luminescence, 90 h; at 8.35 µM; hits give high values
The whole screen tested about 5,600 compounds, of which about 4,100 (73%) were called active. Roughly 4% stayed inconclusive and do not appear here. The set was probably picked from earlier hits. These entries were drawn from the full list.

# compoundStructure, unitOfMeasure, inhibition
rows = [
    ("N#C[C@@H]1[C@@H](c2ccccc2)[C@@H](CO)N1C(=O)Cc1ccccc1", "%", 78.3),
    ("CCN(C[C@H]1[C@H](c2ccccc2)[C@H](CO)N1C(=O)C1CC1)C(=O)NC1CCCC1", "%", -20.8),
    ("CC(=O)NC[C@@H]1[C@@H](c2ccc(-c3ccccc3F)cc2)[C@@H](CO)N1C(=O)C1CC1", "%", 15.9),
    ("N#C[C@@H]1[C@@H](c2ccc(/C=C/c3ccccc3)cc2)[C@@H](CO)N1C(=O)C1CC1", "%", 108),
    ("CCCC#Cc1ccc([C@@H]2[C@@H](C#N)N(C(=O)C3CCCC3)[C@@H]2CO)cc1", "%", 107),
]

* * *

Property: inhibition; scope: individual molecules
protocolNotes: blockers of Trypanosoma cruzi growth in host cells – cell-based, NIH3T3 host, beta-gal parasite, luminescence, cherry-pick, confirmation (AID 651739)
protocolConditions: T. cruzi beta-gal in NIH3T3, GalScreen luminescence, 90 h; at 8.35 µM; hits give high values
Out of some 5,600 compounds screened, about 4,100 (73%) were called active. Inconclusive results (about 4%) are left out. The set was probably picked from earlier hits. Only a sample is shown.

# compoundStructure, inhibition [%]
data = [
    ("CCCN(C)C[C@H]1Oc2cc(C#CC3CCCC3)ccc2S(=O)(=O)N([C@H](C)CO)C[C@@H]1C", 105),
    ("C[C@@H]1CCCCO[C@H](CN(C)S(=O)(=O)c2cccs2)[C@H](C)CN([C@H](C)CO)C(=O)c2cc(NS(=O)(=O)c3ccc(F)cc3)ccc2O1", 109),
    ("CCCN(C)C[C@@H]1Oc2cc(C#Cc3ccc(F)cc3)ccc2S(=O)(=O)N([C@H](C)CO)C[C@H]1C", 108),
    ("Cc1ccc(S(=O)(=O)N(C)C[C@@H]2Oc3ncc(-c4cc5ccccc5o4)cc3C(=O)N([C@H](C)CO)C[C@@H]2C)cc1", 105),
]

* * *

Listed next: entries and their corresponding inhibition.
protocolNotes: blockers of Trypanosoma cruzi growth in host cells – cell-based, NIH3T3 host, beta-gal parasite, luminescence, cherry-pick, confirmation (AID 651739)
protocolConditions: T. cruzi beta-gal in NIH3T3, GalScreen luminescence, 90 h; at 8.35 µM; hits give high values
The campaign covered roughly 5,600 compounds. About 4,100 (73%) were called active. Not shown: some 4% with an inconclusive outcome. So high a share suggests a set chosen from earlier hits. Not all results are given here.

# compoundStructure, inhibition (%)
records = [
    ("COc1ccc(CN(C)C[C@H]2OCCCC[C@H](C)Oc3ccc(NC(=O)Nc4ccc5c(c4)OCO5)cc3C(=O)N([C@H](C)CO)C[C@@H]2C)cc1", 100),
    ("C[C@H](CO)N1C[C@H](C)[C@@H](CN(C)S(=O)(=O)c2ccccc2)Oc2ncc(C#Cc3ccccc3F)cc2C1=O", 111),
    ("C[C@@H]1CN([C@H](C)CO)S(=O)(=O)c2ccc(C#C[C@@H](C)O)cc2O[C@@H]1CN(C)Cc1ccc(-c2ccccc2)cc1", 96.5),
    ("C[C@H](CO)N1C[C@H](C)[C@@H](CN(C)S(=O)(=O)c2ccccc2F)Oc2ncc(C#Cc3ccccc3F)cc2C1=O", 106),
]

* * *

protocolNotes: blockers of Trypanosoma cruzi growth in host cells – cell-based, NIH3T3 host, beta-gal parasite, luminescence, cherry-pick, confirmation (AID 651739)
protocolConditions: T. cruzi beta-gal in NIH3T3, GalScreen luminescence, 90 h; at 8.35 µM
In all, about 5,600 compounds went through this assay and about 4,100 (73%) were called active. Another 4% or so got no clear call; they are omitted.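 Rule for the calls: active = mean replicate inhibition above about 95% and at least 55% of replicates individually reaching it (limit read from the data); inconclusive = only one of the two criteria is met; inactive = neither criterion is met.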 The set was probably picked from earlier hits. The list is a sample of the results.
Outcome codes: active, inactive

# compoundStructure, group
measured = [
    ("O=C(Nc1cc(Cl)cc(Cl)c1)N[C@H]1CC[C@@H](CCNS(=O)(=O)c2cccc(F)c2)O[C@H]1CO", "active"),
    ("O=C(Nc1ccc(Cl)cc1)N[C@@H]1CC[C@@H](CCNC(=O)c2ccccc2F)O[C@H]1CO", "inactive"),
    ("COc1ccccc1-c1ccc2c(c1)O[C@@H](CN(C)C)[C@H](C)CN([C@H](C)CO)S2(=O)=O", "inactive"),
    ("CC(C)CC#Cc1ccc2c(c1)O[C@H](CN(C)C(=O)C1CC1)[C@@H](C)CN([C@@H](C)CO)S2(=O)=O", "active"),
    ("C[C@H](CO)N1C[C@H](C)[C@@H](CN(C)C(=O)C2CCCCC2)Oc2cc(-c3ccccc3)ccc2S1(=O)=O", "active"),
    ("N#Cc1ccc(-c2ccc3c(c2)[C@@H]2[C@@H](CCN2C(=O)Cc2ccncc2)[C@@H](CO)N3)cc1", "active"),
    ("C[C@H]1CN([C@@H](C)CO)S(=O)(=O)c2ccc(C#CCN(C)C)cc2O[C@@H]1CN(C)Cc1ccc(F)cc1", "active"),
    ("C[C@@H]1CN([C@@H](C)CO)S(=O)(=O)c2ccc(/C=C/c3ccccc3)cc2O[C@H]1CN(C)Cc1ccccc1", "active"),
]

* * *

protocolNotes: blockers of Trypanosoma cruzi growth in host cells – cell-based, NIH3T3 host, beta-gal parasite, luminescence, cherry-pick, confirmation (AID 651739)
protocolConditions: T. cruzi beta-gal in NIH3T3, GalScreen luminescence, 90 h; at 8.35 µM; hits give high values
Hit rate of the full screen: of about 5,600 compounds, about 4,100 (73%) were called active. About 4% were inconclusive and are not listed. So high a share suggests a set chosen from earlier hits. These entries were drawn from the full list.

# compoundStructure, inhibition / %
measured = [
    ("C[C@@H]1CCCCO[C@@H](CN(C)Cc2ccc(Cl)c(Cl)c2)[C@H](C)CN([C@H](C)CO)C(=O)c2cc(NC(=O)Nc3ccc(F)cc3)ccc2O1", 88.5),
    ("C[C@H](CO)N1C[C@H](C)[C@@H](CN(C)C(=O)Nc2ccnc(N3CCOCC3)c2)OCc2ccccc2-c2ccccc2C1=O", 100),
    ("C[C@H](CO)N1C[C@H](C)[C@H](CN(C)S(=O)(=O)c2ccccc2)Oc2ncc(-c3cccc(C(F)(F)F)c3)cc2C1=O", 108),
    ("C[C@@H]1CN([C@H](C)CO)C(=O)c2cc(-c3cncnc3)cnc2O[C@H]1CN(C)C(=O)Nc1ccc2c(c1)OCO2", -15.5),
    ("C[C@H]1CN([C@@H](C)CO)C(=O)c2ccccc2-c2ccccc2CO[C@@H]1CN(C)S(=O)(=O)c1ccc(C(F)(F)F)cc1", 99.2),
    ("COc1ccc(NC(=O)Nc2ccc3c(c2)C(=O)N([C@H](C)CO)C[C@@H](C)[C@H](CN(C)Cc2ccc(Cl)c(Cl)c2)OCCCC[C@@H](C)O3)cc1", 98.8),
    ("COc1cccc(S(=O)(=O)N2C[C@@H](O)COC[C@@H]3O[C@H](CC(=O)Nc4ccccc4)CC[C@H]32)c1", 62.3),
]
